Values from ChEMBL document CHEMBL4396883

target: Cyclin-dependent kinase 5/CDK5 activator 1 (Homo sapiens, UniProt Q00535+Q15078); experiment: Inhibition of recombinant full length N-terminal GST tagged human CDK5/p25 expressed in baculovirus infected sf9 cells using histone H1 as substrate at 10 uM measured after 60 mins in presence of ATP by ADP-Glo kinase assay relative to control
Sequence (Q00535 whole entry): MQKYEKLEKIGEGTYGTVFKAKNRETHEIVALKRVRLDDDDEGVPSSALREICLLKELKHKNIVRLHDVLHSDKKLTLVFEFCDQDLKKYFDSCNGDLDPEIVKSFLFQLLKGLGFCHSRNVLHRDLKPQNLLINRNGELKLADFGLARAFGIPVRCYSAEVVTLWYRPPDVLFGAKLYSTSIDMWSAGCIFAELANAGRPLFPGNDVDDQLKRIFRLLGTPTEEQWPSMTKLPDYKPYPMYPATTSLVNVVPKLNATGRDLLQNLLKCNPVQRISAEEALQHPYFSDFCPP
Sequence (Q15078 99-307 partner limits assumed): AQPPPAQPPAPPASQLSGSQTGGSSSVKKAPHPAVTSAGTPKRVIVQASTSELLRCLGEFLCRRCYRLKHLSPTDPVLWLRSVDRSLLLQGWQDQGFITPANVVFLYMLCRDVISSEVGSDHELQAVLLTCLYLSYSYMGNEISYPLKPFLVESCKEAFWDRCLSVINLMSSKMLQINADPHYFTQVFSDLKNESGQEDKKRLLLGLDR
Each entry below carries its recorded inhibition.
Value expressed in %; do not type the unit.

Determine its reported inhibition: NS(=O)(=O)c1cccc(Nc2ncc3c(n2)CCCC3)c1
98

Could you now consider this next molecule?
Determine its reported inhibition: Cc1cccc(Nc2ncc3c(n2)CCCC3)c1
87

* * *

biological target: Cyclin-dependent kinase 5/CDK5 activator 1 (Homo sapiens); experiment: Inhibition of recombinant full length N-terminal GST tagged human CDK5/p25 expressed in baculovirus infected sf9 cells using histone H1 as substrate measured after 60 mins in presence of ATP by ADP-Glo kinase assay
property-label: IC50 (nM)
Value expressed in nM; do not type the unit.

Determine its reported IC50: c1ccc(Nc2ncc3c(n2)CCCC3)cc1
1760

* * *

biological target: CDK2/Cyclin A2 (Homo sapiens) (UniProt P24941+P20248); assay: Inhibition of recombinant full length N-terminal GST tagged human CDK2/CyclinA expressed in baculovirus infected sf9 cells using histone H1 as substrate at 10 uM measured after 30 mins in presence of ATP by ADP-Glo kinase assay relative to control
Active and inactive are the calls of the source. No cut-off for these calls is given here.
property-label: inhibition

Previously resolved entries follow.
Determine its reported inhibition: FC(F)(F)c1cccc(Nc2ncc3c(n2)CCCC3)c1
7%

Determine its reported inhibition: COc1ccc(Nc2ncc3c(n2)CCCC3)c(OC)c1F
7%

Determine its reported inhibition: COc1cc(Cl)ccc1Nc1ncc2c(n1)CCCC2
inactive

Determine its reported inhibition: COc1ccc(Nc2ncc3c(n2)CCCC3)cc1
3%

Determine its reported inhibition: COc1ccccc1Nc1ncc2c(n1)CCCC2
2%

More entries:
Determine its reported inhibition: CCOc1ccccc1Nc1ncc2c(n1)CCCC2
2%

Determine its reported inhibition: COc1cccc(Nc2ncc3c(n2)CCCC3)c1
93%

Determine its reported inhibition: FC(F)(F)c1ccccc1Nc1ncc2c(n1)CCCC2
8%

Determine its reported inhibition: FC(F)(F)Oc1ccccc1Nc1ncc2c(n1)CCCC2
inactive

Determine its reported inhibition: O=[N+]([O-])c1cccc(Nc2ncc3c(n2)CCCC3)c1
87%

* * *

biological target: Cyclin-dependent kinase 5/CDK5 activator 1 (Homo sapiens, UniProt Q00535+Q15078); test: Inhibition of recombinant full length N-terminal GST tagged human CDK5/p25 expressed in baculovirus infected sf9 cells using histone H1 as substrate at 10 uM measured after 60 mins in presence of ATP by ADP-Glo kinase assay relative to control
property-label: inhibition

Determine its reported inhibition: COc1ccc(Nc2ncc3c(n2)CCCC3)c(OC)c1F
21%

Determine its reported inhibition: FC(F)(F)c1cccc(Nc2ncc3c(n2)CCCC3)c1
5%

Determine its reported inhibition: FC(F)(F)c1ccccc1Nc1ncc2c(n1)CCCC2
10%

Determine its reported inhibition: COc1ccc(Nc2ncc3c(n2)CCCC3)cc1
1%

Could you now consider this next molecule?
Determine its reported inhibition: Cc1ccc(Nc2ncc3c(n2)CCCC3)cc1
77%

* * *

molecular target: CDK2/Cyclin A2 (Homo sapiens) (UniProt P24941+P20248); test: Inhibition of recombinant full length N-terminal GST tagged human CDK2/CyclinA expressed in baculovirus infected sf9 cells using histone H1 as substrate at 10 uM measured after 30 mins in presence of ATP by ADP-Glo kinase assay relative to control
property-label: inhibition (%)
Value expressed in %; do not type the unit.

Previously resolved entries follow.
Determine its reported inhibition: Cc1ccc(Nc2ncc3c(n2)CCCC3)cc1
58

Determine its reported inhibition: NS(=O)(=O)c1cccc(Nc2ncc3c(n2)CCCC3)c1
95

Determine its reported inhibition: CCc1cccc(Nc2ncc3c(n2)CCCC3)c1
39

Determine its reported inhibition: Cc1cccc(Nc2ncc3c(n2)CCCC3)c1
72

Determine its reported inhibition: FC(F)(F)c1ccc(Nc2ncc3c(n2)CCCC3)cc1
7

Could you now consider this next compound?
Determine its reported inhibition: Cc1ccccc1Nc1ncc2c(n1)CCCC2
54
